I'd appreciate it if you could supply cell viability values for the items below.
# System: MARIMO
# Measurement Protocol: cell viability relative to vehicle control; higher = less cytotoxic;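 further: after 48 h exposure read by CellTiter-Glo luminescence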
# Experimental Conditions: 10 µM; SRSF2 genotype: SRSF2 wt/wt
Structures can show the parent of a compound that is named as a salt.
Answers are plain numbers, in %.

Example results:
// cell viability (MARIMO) for C=Cc1c(C)c2cc3nc(cc4[nH]c(cc5nc(cc1[nH]2)C(C)=C5CCC(=O)O)c(CCC(=O)OC)c4C)C1(C)C3=CC=C(C(=O)OC)C1C(=O)OC (stereo unspecified) [Verteporfin (Visudyne)] = 85.2

// cell viability (MARIMO) for COCCOC(=O)C1=C(C)NC(C)=C(C(=O)OC(C)C)C1c1cccc([N+](=O)[O-])c1 (stereo unspecified) [Nimodipine (Nimotop)] = 92.7

// cell viability (MARIMO) for C[N+]1(C)[C@@H]2CC[C@H]1C[C@@H](OC(=O)C(O)c1ccccc1)C2 (stereo partly specified) [Homatropine Methylbromide] = 114

# batch size: 5; output cell viability per entry
1. CN1CCC(=C2c3ccccc3CCn3c(C=O)cnc32)CC1 [Alcaftadine]
2. Cc1ccc(S(=O)(=O)n2c(N)nc3ccccc32)cc1
3. Nc1ccc(Oc2ccc(-c3ccc(Oc4ccc(N)cc4)cc3)cc2)cc1 [4,4prime-Bis(4-aminophenoxy)biphenyl]
4. CCCc1nc(C(C)(C)O)c(C(=O)OCc2oc(=O)oc2C)n1Cc1ccc(-c2ccccc2-c2nnn[nH]2)cc1 [Olmesartan medoxomil (Benicar)]
5. CC[C@@H]1[C@H]2CCCCN3[C@H]2[C@H](C[C@H]3[C@@H]2C[C@H](C)C(=O)O2)[C@@H]2[C@H]1OC(=O)[C@H]2C [Tuberostemonine]

Result:
1: 94.7; 2: 104; 3: 101; 4: 111; 5: 89.3

# batch size: 6; output cell viability per entry
1. O=C(Nc1cccc(C(F)(F)F)c1)Nc1cc(S(=O)(=O)NC2CC2)ccc1-c1ccsc1
2. CCCCCCCCCCCCCCCCCCCCCCCCCCCCO [1-Octacosanol]
3. CN[C@H]1CN(c2ccc3c(=O)c(C(=O)O)cn(-c4nccs4)c3n2)C[C@@H]1OC [Voreloxin (SNS-595) hydrochloride]
4. COc1ccc(-c2oc3c(CC=C(C)C)c(O[C@@H]4O[C@H](CO)[C@@H](O)[C@H](O)[C@H]4O)cc(O)c3c(=O)c2O[C@@H]2O[C@@H](C)[C@H](O)[C@@H](O)[C@H]2O)cc1 [Icariin]
5. CCOC(=O)[C@H](CCc1ccccc1)N[C@@H](C)C(=O)N1Cc2cc(OC)c(OC)cc2C[C@H]1C(=O)O [Moexipril HCl]
6. Cc1cccc(-c2[nH]c(C(C)(C)C)nc2-c2ccc3nccnc3c2)n1

Result:
[104, 106, 36, 110, 105, 105]

# batch size: 2; output cell viability per entry
1. O=C(O)CCC(=O)Nc1ccc(Br)cn1 [Bikinin]
2. CC(C)CCN1c2nc(Nc3cc(F)c(O)c(F)c3)ncc2N(C)C(=O)C1C (stereo unspecified)

Result:
104
35.3

# batch size: 2; output cell viability per entry
1. CC1(C)C=C(CN2C/C(=C\c3ccc(F)cc3)C(=O)/C(=C/c3ccc(F)cc3)C2)C(C)(C)N1O
2. CC(=O)O[C@@]12CO[C@@H]1C[C@H](O)[C@@]1(C)C(=O)[C@H](O)C3=C(C)[C@@H](OC(=O)[C@H](O)[C@@H](NC(=O)OC(C)(C)C)c4ccccc4)C[C@@](O)([C@@H](OC(=O)c4ccccc4)[C@H]21)C3(C)C [Docetaxel Trihydrate]

Result:
1. 1.15
2. 5.68

###

I'd appreciate it if you could supply cell viability values for the items below.
# Tested on: MOLM14
# Measurement Protocol: cell viability relative to vehicle control; higher = less cytotoxic
# Experimental Conditions: 10 µM; SRSF2 genotype: SRSF2 wt/wt
One number for each entry, in %.

// cell viability (MOLM14) for COc1ccc(/C=C/C(=O)c2c(O)cc(OC)cc2OC)cc1 [Flavokawain A] = 103

# batch size: 5; output cell viability per entry
1. C=C(C)[C@@H]1CC[C@]2(C(=O)O)CC[C@]3(C)[C@H](CC[C@@H]4[C@@]5(C)CC[C@H](O)C(C)(C)[C@@H]5CC[C@]43C)[C@@H]12 [Betulinic acid]
2. COc1cc(C[C@@H](CO[C@@H]2O[C@H](CO)[C@@H](O)[C@H](O)[C@H]2O)[C@H](CO[C@@H]2O[C@H](CO)[C@@H](O)[C@H](O)[C@H]2O)Cc2ccc(O)c(OC)c2)ccc1O [Secoisolariciresinol diglucoside]
3. C[C@H]1[C@H](C)CC[C@]2(C(=O)O)CC[C@]3(C)C(=CC[C@@H]4[C@@]5(C)CC[C@H](O)C(C)(C)[C@@H]5CC[C@]43C)[C@H]12 [Ursolic acid (Malol)]
4. O=C(NO)c1cnc(NC2(c3ccccc3)CC2)nc1
5. CC(C)(C)C(=O)Oc1ccc(S(=O)(=O)Nc2ccccc2C(=O)NCC(=O)O)cc1 [Sivelestat sodium tetrahydrate]

Result:
[89.3, 98.5, 97, 1.94, 100]

// cell viability (MOLM14) for CCC(=O)NS(=O)(=O)c1ccc(-c2c(-c3ccccc3)noc2C)cc1 [Parecoxib Sodium] = 104

###

# Tested on: OCI-AML2
# Measurement Protocol: cell viability relative to vehicle control; higher = less cytotoxic
# Experimental Conditions: 10 µM; SRSF2 genotype: wt/wt
Please note: cell viability exactly at 20% is criterion not met. Only values below 20% get criterion met.

Q: Threshold test, cell viability < 20%: COc1cc(CCc2cc(NC(=O)c3ccc(N4CC(C)NC(C)C4)cc3)n[nH]2)cc(OC)c1 (stereo not given)
Result: criterion met

Q: Threshold test, cell viability < 20%: Clc1ccc(C(c2c[nH]c3ccccc23)c2c[nH]c3ccccc23)cc1
Result: criterion not met

Q: Threshold test, cell viability < 20%: N=C1S/C(=C\c2ccc(-c3ccc4c(c3)C(=O)NC4=O)o2)C(=O)N1c1ccc(Br)cc1
Result: criterion not met

Q: Threshold test, cell viability < 20%: N#Cc1c(NC(=O)c2cccc3ccccc23)sc2c1CCCC2
Result: criterion met

Please find the next compound below.
Q: Threshold test, cell viability < 20%: COc1ccc(C(=O)C2CCN(CC(=O)N(Cc3nc4c(c(=O)[nH]3)COCC4)CC3CC3)CC2)cc1
Result: criterion not met

###

# Test system: MARIMO
# Measurement Protocol: cell viability relative to vehicle control; higher = less cytotoxic
# Experimental Conditions: 10 µM; SRSF2 genotype: SRSF2 P95H/wt
Where a name gives a salt, the structure may show the parent alone.
Reported Metric: cell viability (%)
Answers are plain numbers, in %.

// cell viability (MARIMO) for CN1CCC(c2c(O)cc(O)c3c(=O)cc(-c4ccccc4Cl)oc23)C(O)C1 (centres undefined) [Flavopiridol (Alvocidib) HCl] = 11.1

# batch size: 3; output cell viability per entry
1. CCCS(=O)(=O)Nc1ccc(F)c(C(=O)c2c[nH]c3ncc(-c4ccc(Cl)cc4)cc23)c1F [Vemurafenib (PLX4032, RG7204)]
2. Cc1nc(C(=O)NCC(=O)O)c(O)c2ccc(Oc3ccccc3)cc12 [Roxadustat (FG-4592)]
3. COc1ccc(CCc2nc3cc(-c4c(C)noc4C)ccc3n2C[C@H](C)N2CCOCC2)cc1Cl

Result:
92.6
79.1
76.9

###

I'd appreciate it if you could supply cell viability values for the items below.
# Test system: MOLM14
# Measurement Protocol: cell viability relative to vehicle control; higher = less cytotoxic
# Experimental Conditions: 10 µM; SRSF2 genotype: SRSF2 P95H/wt
Where a name gives a salt, the structure may show the parent alone.
Enter the number, and then the unit.

Example results:
Reported cell viability for COc1ccc(C(=O)C(=O)c2ccc(OC)cc2)cc1 was 100%

Reported cell viability for Oc1ccc2ccccc2c1SSc1c(O)ccc2ccccc12 was 18.9%

Reported cell viability for CC(C)(O)[C@H]1CC[C@@](C)(C2[C@@H](O)C[C@@]3(C)[C@@H]4C[C@H](O)C5C(C)(C)[C@@H](O)CCC56CC46CC[C@]23C)O1 (some centres not stated) was 108%

Reported cell viability for CCN(CC)C(=S)SSC(=S)N(CC)CC was 27.1%

Reported cell viability for C/C1=C2N=C(/C=C3N=C(/C(C)=C4\[N-]C(C(CC(N)=O)C4(C)CCC(=O)NCC(C)OP(=O)([O-])OC4C(CO)OC(n5cnc6cc(C)c(C)cc65)C4O)C4(C)N=C1C(CCC(N)=O)C4(C)CC(N)=O)C(CCC(N)=O)C\3(C)C)C(CCC(N)=O)C/2(C)CC(N)=O.[CH3-].[Co+3] (configuration not stated) was 90.8%

Reported cell viability for COCCc1ccc(OCC(O)CNC(C)C)cc1 (configuration not stated) [Metoprolol tartrate] was 104%

# batch size: 7; output cell viability per entry
1. CC(=O)Oc1ccc(C(=C2CCCCC2)c2ccc(OC(C)=O)cc2)cc1
2. COCCCOc1ccnc(C[S+]([O-])c2nc3ccccc3[nH]2)c1C (configuration not stated) [Rebeprazole sodium]
3. COc1ccc(NS(=O)(=O)c2sc3ccc(Cl)cc3c2C)cc1N1CCNCC1
4. Cc1nccn1CC1CCc2c(c3ccccc3n2C)C1=O (configuration not stated) [Ondansetron Hydrochloride Dihydrate]
5. CC12CCC(C1)C(C)(C)C2O (configuration not stated)
6. CN(C)CCCN1c2ccccc2Sc2ccc(Cl)cc21 [Chlorpromazine HCl]
7. COc1ccc(-c2coc3cc(O)cc(O)c3c2=O)cc1

Result:
1: 94.3%; 2: 95.6%; 3: 96.4%; 4: 97.4%; 5: 96.4%; 6: 40.7%; 7: 96.5%
